As shown below, each of these compounds has a reported inhibition at 1 µM value.
target_entity: UniProtKB P21397
run_description: in vitro
test_parameters: probe p-tyramine
Description: Inhibition of recombinant human MAO-A expressed in baculovirus infected BTI cells at 1 uM using p-tyramine as substrate by fluorometric assay relative to control
A complete answer gives the number and then names the unit.

Worked cases, inhibition at 1 µM given:
compound: CC1CCN(CCCCCCOc2ccc3oc4ccc(Cl)cc4c(=O)c3c2)CC1
inhibition at 1 µM: 28%

compound: O=c1c2ccccc2oc2ccc(OCCCCCCN3CCCCCC3)cc12
inhibition at 1 µM: 3%

compound: O=c1c2cc(Cl)ccc2oc2ccc(OCCCCCN3CCCCC3)cc12
inhibition at 1 µM: 5%

compound: O=c1c2ccccc2oc2ccc(OCCCCCN3CCCCC3)cc12
inhibition at 1 µM: 6%

compound: CC1CCCN(CCCCCCOc2ccc3oc4ccccc4c(=O)c3c2)C1 (stereo unspecified)
inhibition at 1 µM: 4%

(Q) What does the record list as inhibition at 1 µM for `O=c1c2ccc(Cl)cc2oc2ccc(OCCCCCN3CCCCCC3)cc12` ?
(A) 2%

(Q) Find the recorded inhibition at 1 µM belonging to `CC1CCN(CCCCCCOc2ccc3oc4ccccc4c(=O)c3c2)CC1` and report it.
(A) 6%

(Q) Could you share which inhibition at 1 µM value was measured for `Clc1ccc(CCCOCCCN2CCCCC2)cc1` ?
(A) 9%

(Q) Could you share which inhibition at 1 µM value was measured for CC1CCCN(CCCCCOc2ccc3oc4ccc(Cl)cc4c(=O)c3c2)C1 (stereo unspecified) ?
(A) 2%

(Q) // returns reported inhibition at 1 µM for input `O=c1c2ccccc2oc2ccc(OCCCCCCN3CCCCC3)cc12`
(A) 4%

(Q) Name the reported inhibition at 1 µM value associated with the compound `O=c1c2ccc(Cl)cc2oc2ccc(OCCCCCCN3CCCCCC3)cc12`
(A) 5%

----------
target_entity: MAO-A (Homo sapiens)
Sequence (P21397 whole entry): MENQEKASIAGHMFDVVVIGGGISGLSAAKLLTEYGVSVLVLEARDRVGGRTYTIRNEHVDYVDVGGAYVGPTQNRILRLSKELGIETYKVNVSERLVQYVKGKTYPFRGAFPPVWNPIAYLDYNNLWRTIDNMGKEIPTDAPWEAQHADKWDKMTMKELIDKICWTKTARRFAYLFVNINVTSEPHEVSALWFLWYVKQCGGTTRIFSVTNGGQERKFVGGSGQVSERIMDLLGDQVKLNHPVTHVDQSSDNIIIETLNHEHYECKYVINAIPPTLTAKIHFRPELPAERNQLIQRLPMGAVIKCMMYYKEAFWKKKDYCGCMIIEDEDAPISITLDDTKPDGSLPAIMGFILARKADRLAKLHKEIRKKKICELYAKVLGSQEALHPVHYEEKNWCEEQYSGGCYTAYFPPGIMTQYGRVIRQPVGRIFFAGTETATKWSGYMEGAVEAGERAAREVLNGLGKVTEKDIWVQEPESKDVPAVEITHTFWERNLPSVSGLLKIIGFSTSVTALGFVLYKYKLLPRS
run_description: in vitro
test_parameters: probe p-tyramine
inhibition at 1 µM values for the compounds below.

Some compounds with recorded inhibition at 1 µM:
compound: O=c1c2cc(Cl)ccc2oc2ccc(OCCCCCCN3CCCCC3)cc12
inhibition at 1 µM: 8%

compound: C#CCN(C)CCCOc1ccc(Cl)cc1Cl
inhibition at 1 µM: 1.8%

compound: O=c1c2cc(Cl)ccc2oc2ccc(OCCCCCCN3CCCCCC3)cc12
inhibition at 1 µM: 23%

(Q) Which inhibition at 1 µM is reported for this compound? CC1CCCN(CCCCCCOc2ccc3oc4cc(Cl)ccc4c(=O)c3c2)C1 (centres undefined)
(A) 42%

(Q) Using the record for `O=c1c2cc(Cl)ccc2oc2ccc(OCCCCCN3CCCCCC3)cc12` , report its inhibition at 1 µM.
(A) 12%

(Q) Recorded inhibition at 1 µM of CC1CCCN(CCCCCCOc2ccc3oc4ccc(Cl)cc4c(=O)c3c2)C1 (centres undefined) , please.
(A) 28%

(Q) # input compound: `O=c1c2ccccc2oc2ccc(OCCCCCN3CCCCCC3)cc12` ; wanted: its inhibition at 1 µM
(A) 4%

(Q) Which inhibition at 1 µM is reported for this compound? `O=c1c2ccc(Cl)cc2oc2ccc(OCCCCCCN3CCCCC3)cc12`
(A) 8%

(Q) Any idea what inhibition at 1 µM was measured for `CC1CCN(CCCCCOc2ccc3oc4cc(Cl)ccc4c(=O)c3c2)CC1` ?
(A) 22%

(Q) So what's the measured inhibition at 1 µM for this one? `CC1CCN(CCCCCCOc2ccc3oc4cc(Cl)ccc4c(=O)c3c2)CC1`
(A) 37%

(Q) Consider the compound `CC1CCN(CCCCCOc2ccc3oc4ccccc4c(=O)c3c2)CC1` and give its measured inhibition at 1 µM.
(A) 1%

(Q) Consider the compound shown here: `CC1CCN(CCCCCOc2ccc3oc4ccc(Cl)cc4c(=O)c3c2)CC1` What is its recorded inhibition at 1 µM?
(A) 5%

(Q) Can you share its inhibition at 1 µM? I mean this compound: CC1CCCN(CCCCCOc2ccc3oc4cc(Cl)ccc4c(=O)c3c2)C1 (centres undefined)
(A) 11%

(Q) Please give the measured inhibition at 1 µM for this compound: CC1CCCN(CCCCCOc2ccc3oc4ccccc4c(=O)c3c2)C1 (centres undefined)
(A) 1%
